The reported numbers originate from ChEMBL document CHEMBL1275301.

test system: Rattus norvegicus; experiment: Antihypertensive activity against DOCA-salt induced hypertension in albino rat assessed as reduction in systolic blood pressure at 10 mg/kg, po after 360 mins by tail-cuff method; assay type: functional; conditions: Artery, 6 h

>  <Compound>
CC1=C(C(=O)Nc2ccc([N+](=O)[O-])cc2)C(c2cccc([N+](=O)[O-])c2)N=C(SCc2cccc(Cl)c2)N1 (stereo unspecified)

>  <Assay Target>
Rattus norvegicus

>  <inhibition in vivo at 10 mg/kg>
21.6%

$$$$
>  <Compound>
CC1=C(C(=O)Nc2ccc(Br)cc2)C(c2ccc(Cl)cc2Cl)N=C(SCc2cccc(Cl)c2)N1 (stereo unspecified)

>  <Assay Target>
Rattus norvegicus

>  <inhibition in vivo at 10 mg/kg>
20.6%

$$$$
>  <Compound>
COc1ccc(C2N=C(SCc3ccccc3)NC(C)=C2C(=O)Nc2ccc(Br)cc2)cc1 (stereo unspecified)

>  <Assay Target>
Rattus norvegicus

>  <inhibition in vivo at 10 mg/kg>
18.6%

$$$$
>  <Compound>
CC1=C(C(=O)Nc2ccc([N+](=O)[O-])cc2)C(c2cccc([N+](=O)[O-])c2)N=C(SCc2ccccc2)N1 (stereo unspecified)

>  <Assay Target>
Rattus norvegicus

>  <inhibition in vivo at 10 mg/kg>
32.5%

$$$$
>  <Compound>
COc1ccc(C2N=C(SCc3ccccc3Cl)NC(C)=C2C(=O)Nc2ccc(F)cc2)cc1OC (stereo unspecified)

>  <Assay Target>
Rattus norvegicus

>  <inhibition in vivo at 10 mg/kg>
39.2%

$$$$
>  <Compound>
CC1=C(C(=O)Nc2ccc(F)cc2)C(c2ccc([N+](=O)[O-])cc2)N=C(SCc2cccc(Cl)c2)N1 (stereo unspecified)

>  <Assay Target>
Rattus norvegicus

>  <inhibition in vivo at 10 mg/kg>
21.1%

$$$$
>  <Compound>
COC(=O)C1=C(C)NC(C)=C(C(=O)OC)C1c1ccccc1[N+](=O)[O-]

>  <Assay Target>
Rattus norvegicus

>  <inhibition in vivo at 10 mg/kg>
38.1%

$$$$
>  <Compound>
COc1ccc(C2N=C(SCc3ccccc3Cl)NC(C)=C2C(=O)Nc2ccc(Br)cc2)cc1 (stereo unspecified)

>  <Assay Target>
Rattus norvegicus

>  <inhibition in vivo at 10 mg/kg>
20.6%

$$$$
>  <Compound>
COc1ccc(C2N=C(SCc3ccc(Cl)cc3)NC(C)=C2C(=O)Nc2ccc(F)cc2)cc1OC (stereo unspecified)

>  <Assay Target>
Rattus norvegicus

>  <inhibition in vivo at 10 mg/kg>
37.1%

$$$$
>  <Compound>
CC1=C(C(=O)Nc2ccc(F)cc2)C(c2ccc([N+](=O)[O-])cc2)N=C(SCc2ccccc2)N1 (stereo unspecified)

>  <Assay Target>
Rattus norvegicus

>  <inhibition in vivo at 10 mg/kg>
38.7%

$$$$
>  <Compound>
CC1=C(C(=O)Nc2ccc(F)cc2)C(c2ccc([N+](=O)[O-])cc2)N=C(SCc2ccc(Cl)cc2)N1 (stereo unspecified)

>  <Assay Target>
Rattus norvegicus

>  <inhibition in vivo at 10 mg/kg>
39.7%

$$$$
>  <Compound>
COc1ccc(C2N=C(SCc3ccccc3)NC(C)=C2C(=O)Nc2ccc(F)cc2)cc1OC (stereo unspecified)

>  <Assay Target>
Rattus norvegicus

>  <inhibition in vivo at 10 mg/kg>
3.6%

$$$$
>  <Compound>
CC1=C(C(=O)Nc2ccc(Br)cc2)C(c2ccc(Cl)cc2Cl)N=C(SCc2ccc(F)cc2)N1 (stereo unspecified)

>  <Assay Target>
Rattus norvegicus

>  <inhibition in vivo at 10 mg/kg>
40.7%

$$$$
>  <Compound>
CC1=C(C(=O)Nc2ccc([N+](=O)[O-])cc2)C(c2ccc(Br)cc2)N=C(SCc2cccc(Cl)c2)N1 (stereo unspecified)

>  <Assay Target>
Rattus norvegicus

>  <inhibition in vivo at 10 mg/kg>
7.2%

$$$$
>  <Compound>
COc1ccc(C2N=C(SCc3cccc(Cl)c3)NC(C)=C2C(=O)Nc2ccc(Br)cc2)cc1 (stereo unspecified)

>  <Assay Target>
Rattus norvegicus

>  <inhibition in vivo at 10 mg/kg>
39.7%

$$$$
>  <Compound>
CC1=C(C(=O)Nc2ccc([N+](=O)[O-])cc2)C(c2cccc([N+](=O)[O-])c2)N=C(SCc2ccc(F)cc2)N1 (stereo unspecified)

>  <Assay Target>
Rattus norvegicus

>  <inhibition in vivo at 10 mg/kg>
36.1%

$$$$
>  <Compound>
CC1=C(C(=O)Nc2ccc([N+](=O)[O-])cc2)C(c2cccc([N+](=O)[O-])c2)N=C(SCc2ccccc2Cl)N1 (stereo unspecified)

>  <Assay Target>
Rattus norvegicus

>  <inhibition in vivo at 10 mg/kg>
17.5%

$$$$
>  <Compound>
COc1ccc(C2N=C(SCc3ccc(Cl)cc3)NC(C)=C2C(=O)Nc2ccc(Br)cc2)cc1 (stereo unspecified)

>  <Assay Target>
Rattus norvegicus

>  <inhibition in vivo at 10 mg/kg>
39.2%

$$$$
>  <Compound>
CC1=C(C(=O)Nc2ccc([N+](=O)[O-])cc2)C(c2ccc(Br)cc2)N=C(SCc2ccc(F)cc2)N1 (stereo unspecified)

>  <Assay Target>
Rattus norvegicus

>  <inhibition in vivo at 10 mg/kg>
38.7%

$$$$
>  <Compound>
CC1=C(C(=O)Nc2ccc(Br)cc2)C(c2ccc(Cl)cc2Cl)N=C(SCc2ccccc2Cl)N1 (stereo unspecified)

>  <Assay Target>
Rattus norvegicus

>  <inhibition in vivo at 10 mg/kg>
38.1%

$$$$
>  <Compound>
CC1=C(C(=O)Nc2ccc(Br)cc2)C(c2ccc(Cl)cc2Cl)N=C(SCc2ccccc2)N1 (stereo unspecified)

>  <Assay Target>
Rattus norvegicus

>  <inhibition in vivo at 10 mg/kg>
24.2%

$$$$
>  <Compound>
CC1=C(C(=O)Nc2ccc(F)cc2)C(c2ccc([N+](=O)[O-])cc2)N=C(SCc2ccccc2Cl)N1 (stereo unspecified)

>  <Assay Target>
Rattus norvegicus

>  <inhibition in vivo at 10 mg/kg>
21.6%

$$$$
>  <Compound>
CC1=C(C(=O)Nc2ccc([N+](=O)[O-])cc2)C(c2cccc([N+](=O)[O-])c2)N=C(SCc2ccc(Cl)cc2)N1 (stereo unspecified)

>  <Assay Target>
Rattus norvegicus

>  <inhibition in vivo at 10 mg/kg>
33%

$$$$
>  <Compound>
CC1=C(C(=O)Nc2ccc([N+](=O)[O-])cc2)C(c2ccc(Br)cc2)N=C(SCc2ccc(Cl)cc2)N1 (stereo unspecified)

>  <Assay Target>
Rattus norvegicus

>  <inhibition in vivo at 10 mg/kg>
39.2%

$$$$
>  <Compound>
COc1ccc(C2N=C(SCc3ccc(F)cc3)NC(C)=C2C(=O)Nc2ccc(Br)cc2)cc1 (stereo unspecified)

>  <Assay Target>
Rattus norvegicus

>  <inhibition in vivo at 10 mg/kg>
33.5%

$$$$
>  <Compound>
CC1=C(C(=O)Nc2ccc(F)cc2)C(c2ccc([N+](=O)[O-])cc2)N=C(SCc2ccc(F)cc2)N1 (stereo unspecified)

>  <Assay Target>
Rattus norvegicus

>  <inhibition in vivo at 10 mg/kg>
33%

$$$$
>  <Compound>
CC1=C(C(=O)Nc2ccc(Br)cc2)C(c2ccc(Cl)cc2Cl)N=C(SCc2ccc(Cl)cc2)N1 (stereo unspecified)

>  <Assay Target>
Rattus norvegicus

>  <inhibition in vivo at 10 mg/kg>
39.7%

$$$$
>  <Compound>
COc1ccc(C2N=C(SCc3ccc(F)cc3)NC(C)=C2C(=O)Nc2ccc(F)cc2)cc1OC (stereo unspecified)

>  <Assay Target>
Rattus norvegicus

>  <inhibition in vivo at 10 mg/kg>
37.1%

$$$$
>  <Compound>
CC1=C(C(=O)Nc2ccc([N+](=O)[O-])cc2)C(c2ccc(Br)cc2)N=C(SCc2ccccc2Cl)N1 (stereo unspecified)

>  <Assay Target>
Rattus norvegicus

>  <inhibition in vivo at 10 mg/kg>
13.9%

$$$$
>  <Compound>
CC1=C(C(=O)Nc2ccc([N+](=O)[O-])cc2)C(c2ccc(Br)cc2)N=C(SCc2ccccc2)N1 (stereo unspecified)

>  <Assay Target>
Rattus norvegicus

>  <inhibition in vivo at 10 mg/kg>
37.6%

$$$$
>  <Compound>
COc1ccc(C2N=C(SCc3cccc(Cl)c3)NC(C)=C2C(=O)Nc2ccc(F)cc2)cc1OC (stereo unspecified)

>  <Assay Target>
Rattus norvegicus

>  <inhibition in vivo at 10 mg/kg>
20.1%

$$$$
